target-of-assay: UniProt:P09917
experiment-notes: Inhibition of 5-LOX in human intact polymorphonuclear leukocytes preincubated for 15 mins with CaCl2, A23187 measured after 10 mins by HPLC analysis
pIC50: −log10 of the molar value.
measurement-kind: pIC50

* CCOC(=O)c1c(CSc2cccc(Cl)c2Cl)[nH]c2c1cc(O)c1ccccc12 | 6.18
* CCOC(=O)c1c(CSc2c(C)cccc2C)[nH]c2c1cc(O)c1ccccc12 | 6.77
* CCOC(=O)c1c(CSc2ccc(Cl)c(Cl)c2)[nH]c2c1cc(O)c1ccccc12 | 6.63
* CCOC(=O)c1c(CSc2ccccc2Cl)[nH]c2c1cc(OCC)c1ccccc12 | 5.90
* CCOC(=O)c1c(CSc2ccccc2Cl)[nH]c2c1cc(OC)c1ccccc12 | 5.94
* CCOC(=O)c1c(CSc2c(Cl)cccc2Cl)[nH]c2c1cc(O)c1ccccc12 | 6.72
* CCOC(=O)c1c(CSc2ccccc2Cl)[nH]c2c1cc(O)c1ccccc12 | 6.74
* CCOC(=O)c1c(CSc2cc(Cl)cc(Cl)c2)[nH]c2c1cc(O)c1ccccc12 | 6.62

###

target-of-assay: Polyunsaturated fatty acid 5-lipoxygenase (Homo sapiens, UniProt P09917)
Sequence (P09917 whole entry): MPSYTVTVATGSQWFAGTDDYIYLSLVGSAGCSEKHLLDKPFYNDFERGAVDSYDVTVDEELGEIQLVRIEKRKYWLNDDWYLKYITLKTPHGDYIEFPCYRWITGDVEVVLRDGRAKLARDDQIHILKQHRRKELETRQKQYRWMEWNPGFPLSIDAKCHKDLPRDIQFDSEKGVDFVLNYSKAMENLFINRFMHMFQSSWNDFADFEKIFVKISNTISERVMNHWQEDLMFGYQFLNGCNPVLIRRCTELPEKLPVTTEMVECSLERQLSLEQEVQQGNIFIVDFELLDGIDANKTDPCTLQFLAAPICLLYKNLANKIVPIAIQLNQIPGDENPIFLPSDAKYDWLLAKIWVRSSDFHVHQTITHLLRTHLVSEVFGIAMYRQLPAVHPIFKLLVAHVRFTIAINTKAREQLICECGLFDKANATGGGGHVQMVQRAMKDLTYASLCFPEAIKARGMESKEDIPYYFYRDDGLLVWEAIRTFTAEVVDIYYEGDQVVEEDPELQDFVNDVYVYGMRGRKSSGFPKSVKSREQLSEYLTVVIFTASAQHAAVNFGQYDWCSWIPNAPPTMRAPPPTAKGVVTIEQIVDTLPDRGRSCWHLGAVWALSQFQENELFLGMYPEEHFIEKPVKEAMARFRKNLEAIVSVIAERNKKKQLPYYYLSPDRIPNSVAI
experiment-notes: Inhibition of human recombinant 5-LOX expressed in Escherichia coli BL21 using arachidonic acid as substrate assessed as LTB4 formation preincubated for 15 mins measured after 10 mins by HPLC analysis
pIC50: −log10 of the molar value.
Overview of recorded pIC50 for various molecules
measurement-kind: pIC50

* CCOC(=O)c1c(CSc2c(Cl)cccc2Cl)[nH]c2c1cc(O)c1ccccc12 | 6.77
* CCOC(=O)c1c(CSc2c(C)cc(C)cc2C)[nH]c2c1cc(O)c1ccccc12 | 6.70
* CCOC(=O)c1c(CSc2ccccc2Cl)[nH]c2c1cc(OCC)c1ccccc12 | 5.69
* CCOC(=O)c1c(CSc2ccc(Cl)c(Cl)c2)[nH]c2c1cc(O)c1ccccc12 | 6.03

###

Overview of recorded pIC50 for various compounds
target-of-assay: Prostaglandin E synthase (Homo sapiens)
Sequence (O14684 whole entry): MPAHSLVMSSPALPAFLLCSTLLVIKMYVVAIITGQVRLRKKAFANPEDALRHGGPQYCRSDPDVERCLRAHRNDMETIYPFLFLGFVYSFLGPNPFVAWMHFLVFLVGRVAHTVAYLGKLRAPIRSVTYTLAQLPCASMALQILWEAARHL
experiment-notes: Inhibition of IL-1beta-activated m-PGES-1 in microsome of human A549 cells assessed as PGE2 formation preincubated for 15 mins followed by PGH2 addition measured after 1 min by RP-HPLC analysis
pIC50: −log10 of the molar value.
measurement-kind: pIC50

* CCOC(=O)c1c(CSc2c(Cl)cccc2Cl)[nH]c2c1cc(O)c1ccccc12 | 5.88
* CCOC(=O)c1c(CSc2cc(Cl)cc(Cl)c2)[nH]c2c1cc(O)c1ccccc12 | 4.86
* CCOC(=O)c1c(CSc2c(C)cc(C)cc2C)[nH]c2c1cc(O)c1ccccc12 | 5.71

###

target-of-assay: Polyunsaturated fatty acid 5-lipoxygenase (Homo sapiens) (UniProt P09917)
Sequence (P09917 whole entry): as the sequence (P09917 whole entry) above
experiment-notes: Inhibition of human recombinant 5-LOX expressed in Escherichia coli BL21 using arachidonic acid as substrate assessed as remaining enzyme activity by measuring LTB4 formation at 1 uM preincubated for 15 mins measured after 10 mins by HPLC analysis
measurement-kind: Activity (%)

* CCOC(=O)c1c(CSc2cc(C)cc(C)c2)[nH]c2c1cc(O)c1ccccc12 | 63
* CCOC(=O)c1c(CSc2cccc(Cl)c2)[nH]c2c1cc(O)c1ccccc12 | 63.8
* CCOC(=O)c1c(CSc2cccc(Cl)c2Cl)[nH]c2c1cc(O)c1ccccc12 | 72
* CCOC(=O)c1c(CSc2c(C)cccc2C)[nH]c2c1cc(O)c1ccccc12 | 65.9
